Reported a-ketoglutarate values follow for various compounds
# Test system: P. falciparum 3D7 trophozoites
# assayMethodText: Metabolomic fingerprint profiling LC-MS
# Format: cell-based, Plasmodium falciparum
# protocolConditions: metabolite a-ketoglutarate, S2 Table Metabolomics
parameter: a-ketoglutarate

1. Oc1ccccc1CNCC12CC3CC(CC(C3)C1)C2 | -0.5092
2. Cc1cccc(Nc2nc(N)c3ccccc3n2)c1 | -0.9521
3. O=C1C(O)=C([C@H]2CC[C@H](c3ccc(Cl)cc3)CC2)C(=O)c2ccccc21 [Atovaquone, reference compound] | -0.0182
4. COc1ccc(-c2c(C)nn3c(N)c(C#N)cnc23)cc1OC | -0.2189
5. CCOc1ccc(-c2nonc2NC(=O)c2cccc(C)c2)cc1OCC | 0.06268

---

# Test system: P. falciparum 3D7 trophozoites
# assayMethodText: Metabolomic fingerprint profiling LC-MS
# Type: cell-based, Plasmodium falciparum
# protocolConditions: metabolite pyruvate; S2 Table Metabolomics, change in metabolite level after compound treatment
Grouping by measured pyruvate is done with the following cut points: zone 1 (below -0.3), zone 2 (-0.3 to below -0.002), zone 3 (-0.002 or more)

1) CSC1=NC(=Nc2c(C)cccc2C)C2(CCC(C(C)(C)C)CC2)N1c1ccc(Cl)cc1 (stereo not drawn) | zone 1
2) CC1CN(C(=O)c2sc3ccccc3c2Cl)CC(C)O1 (stereo not drawn) | zone 2
3) COc1ccc(C(C)=O)cc1N1C(=O)C2C(C1=O)C1(c3ccccc3)C(=O)C2(c2ccccc2)C(c2ccc(C)cc2)=C1c1ccc(C)cc1 (stereo not drawn) | zone 3
4) CCOc1cc2c(cc1OCC)C(c1cc(OC)c(O)cc1Cl)NCC2 (stereo not drawn) | zone 3
5) CCN(CC)CCNc1ncnc2c1[nH]c1ccc(Cl)cc12 | zone 2
6) O=C(CSc1nccn2nc(-c3ccccc3)cc12)Nc1cc(C(F)(F)F)ccc1Cl | zone 3
7) CCOC(=O)c1c(C)n(-c2ccc(Cl)cc2)c2ccc(OC(=O)C=Cc3ccccc3)cc12 | zone 2
8) CC(C)(C)c1ccc(O)c(CNC2CCCCC2)c1 | zone 1
9) Cc1cc(C)cc(Nc2cc(C)nc3nc(C(F)(F)F)nn23)c1 | zone 1

---

# System: P. falciparum 3D7 trophozoites
# assayMethodText: Metabolomic fingerprint profiling LC-MS
# Assay type: cell-based, Plasmodium falciparum
# protocolConditions: metabolite sn-glycerol-3-phosphate, S2 Table Metabolomics
parameter: sn-glycerol-3-phosphate

1) Cc1ccc(Nc2nc(NCCO)c3ccccc3n2)cc1C | 0.01718
2) COc1ccc(-c2cc3c(SCC(=O)Nc4cc(C(F)(F)F)ccc4Cl)nccn3n2)cc1 | -0.1937
3) CC1CCN(Cc2ccc(NC(=O)c3cc4ccc5cccnc5c4[nH]3)cc2)CC1 | -0.2777
4) Oc1ccccc1CNCC12CC3CC(CC(C3)C1)C2 | 0.6534
5) CCC(c1ccccc1)c1nn2c(-c3cccs3)nnc2s1 (stereo not drawn) | -0.401
6) Cc1ccc(-c2cc3c(nn2)-c2ccccc2C3=O)cc1 | 0.4697
7) COc1ccc(NC(=O)C2c3ccccc3C(=O)N(CC(C)C)C2c2cccs2)cc1 (stereo not drawn) | 0.8186
8) CCOC(=O)c1cnc2c(C)cc(C)cc2c1Nc1ccc(OC)c(OC)c1 | -0.7886
9) COc1ccc2c(=O)cc(C(Cl)(Cl)Cl)oc2c1 | -1.932
